# Read-out: Interleukin 17F (IL17F), IL17F (gene 112744)
# assayNotes: BSK_BT_xIL17F: BioMAP Diversity Plus: BT Assay for Interleukin 17F (IL17F) Biomarker Activity (AID 2284243)
# testParameters: primary human B cells with PBMC
The source made the active and inactive calls. Rule for the calls: active = hit-call score of the fitted dose curve at least 0.9, where 1 is the maximum; inactive = score below 0.9.
One label from this list, please: yes = active, no = inactive

{"molecule": "CC(CCl)OP(=O)(OC(C)CCl)OC(C)CCl (stereo not drawn)", "className": "no"}

Task item: Query: recorded result category for FC1CC(F)(F)C(F)(F)C1(F)F (stereo not drawn) in this test
Reply: no

Task item: Query: recorded result category for OCC(F)(F)C(F)(F)C(F)(F)C(F)(F)C(F)(F)C(F)F in this test
Reply: no

Task item: Query: recorded result category for FC(F)(F)C(F)(F)C(F)(F)C(F)(F)CCI in this test
Reply: no

Task item: Query: recorded result category for CCCCCCC(C)OC(=O)CCCCC(=O)OC(C)CCCCCC (stereo not drawn) in this test
Reply: no

Task item: Query: recorded result category for CCc1ccc(C(c2ccc(CC)cc2)C(Cl)Cl)cc1 in this test
Reply: yes

Task item: Query: recorded result category for CCCCNc1ccccc1 in this test
Reply: no

Task item: Query: recorded result category for O=S(=O)(OCCOC(F)(F)F)C(F)(F)F in this test
Reply: no

* * *

# assayNotes: CCTE_Mundy_HCI_iCellGluta_NOG_NeuronCount: CCTE's Neurite Outgrowth Assay in iCellGluta cells for Neuron Count, Mundy Lab (AID 2284340);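 note: cells fixed about 48 h after compound addition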
Inconclusive results are not listed. Calls of active or inactive are those of the source. The calls were made as follows: active = hit-call score of the fitted dose curve at least 0.9, where 1 is the maximum; inconclusive = response in the unintended direction; inactive = score below 0.9.
One label from this list, please: active, inactive

{"molecule": "FC(F)(F)C(F)(F)C(F)(F)C(F)(F)C(F)(F)C(F)(F)CC1CO1 (stereo unspecified)", "className": "inactive"}
{"molecule": "FC(F)(F)C(F)(F)C(F)(F)C(F)(F)C(F)(F)C(F)(F)C(F)(F)C(F)(F)CCS", "className": "active"}
{"molecule": "CC(CCl)OP(=O)(OC(C)CCl)OC(C)CCl (stereo unspecified)", "className": "inactive"}

Task item: Query: recorded result category for CC(C)(C)C(=O)CC(=O)C(F)(F)C(F)(F)C(F)(F)F in this test
Reply: inactive

Task item: Query: recorded result category for OCC(F)(F)C(F)(F)C(F)(F)C(F)F in this test
Reply: inactive

Task item: Query: recorded result category for O=C(O)C(F)(F)C(F)(F)C(F)(F)F in this test
Reply: inactive

* * *

# Read-out: Tissue Factor, F3 (gene 2152)
# assayNotes: BSK_LPS_TissueFactor: BioMAP Diversity Plus: LPS Assay for Tissue Factor Biomarker Activity (AID 2283084)
# testParameters: primary human HUVEC with PBMC; actives raise or lower the signal
Active and inactive are the calls of the source. The calls were made as follows: active = hit-call score of the fitted dose curve at least 0.9, where 1 is the maximum; inactive = score below 0.9.
One label from this list, please: label 1 for active, label 0 for inactive

Some entries whose results are on file:
{"compound": "CCCCOCCOCCOC(=O)CCCCC(=O)OCCOCCOCCCC", "className": "label 0"}
{"compound": "C=CC/C=C/C/C=C/C/C=C/C", "className": "label 0"}
{"compound": "OCC(F)(F)C(F)(F)C(F)(F)C(F)(F)C(F)(F)C(F)F", "className": "label 0"}
{"compound": "O=C(O)C(F)(F)C(F)(F)C(F)(F)C(F)(F)C(F)(F)C(F)(F)C(F)(F)C(F)(F)C(F)(F)C(F)(F)C(F)(F)C(F)(F)C(F)(F)F", "className": "label 0"}
{"compound": "O=C(O)C(F)(F)C(F)(F)OC(F)(F)F", "className": "label 0"}

Task item: Query: recorded result category for C=CC(=O)OCC(F)(F)C(F)(F)C(F)(F)C(F)(F)C(F)(F)C(F)(F)C(F)(F)F in this test
Reply: label 0

Task item: Query: recorded result category for OCCCC(F)(F)C(F)(F)C(F)(F)F in this test
Reply: label 0

Task item: Query: recorded result category for NC(=O)C(F)(F)C(F)(F)C(F)(F)C(F)(F)F in this test
Reply: label 0

Task item: Query: recorded result category for CCN(CC)c1ccc2c(C)cc(=O)oc2c1 in this test
Reply: label 0
